The entries below are paired with their reported inhibition.
molecular target: Non-receptor tyrosine-protein kinase TYK2 (Homo sapiens); details: at 1 µM;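 note: values are mean percent inhibition of TYK2 kinase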
observation type: inhibition (%)

[[record]]
smiles_str = "CCn1c(-c2nonc2N)nc2c(C#CC(C)(C)O)nc(OC[C@H](N)c3ccccc3)cc21"
result_units = "%"
reading = -3.88

[[record]]
smiles_str = "CCn1c(-c2nonc2N)nc2c(C#CC(C)(C)O)ncc(OC3CCNCC3)c21"
result_units = "%"
reading = -1.36

[[record]]
smiles_str = "COC(=O)c1sc(-n2cnc3cc(OC)c(OC)cc32)cc1OCc1ccccc1C(F)(F)F"
result_units = "%"
reading = -3.12

[[record]]
smiles_str = "CCn1c(-c2nonc2N)nc2cnc(Oc3cccc(NC(=O)c4ccc(N(C)C)cc4)c3)cc21"
result_units = "%"
reading = -0.04

[[record]]
smiles_str = "FC(F)(F)c1cccc(-c2nn3ncccc3c2-c2ccnc(Nc3ccc4c(c3)OCCO4)n2)c1"
result_units = "%"
reading = -3.08

[[record]]
smiles_str = "Clc1ccc(-c2nn3ncccc3c2-c2ccnc(Nc3ccccc3)n2)cc1"
result_units = "%"
reading = -0.64

[[record]]
smiles_str = "Nc1nc(-c2ccc(F)cc2)c(-c2ccc3ncccc3n2)s1"
result_units = "%"
reading = -1.99

[[record]]
smiles_str = "COc1ccc2c(-c3ccnc(Nc4cccc(OC(F)(F)F)c4)n3)cnn2n1"
result_units = "%"
reading = -2.09

[[record]]
smiles_str = "COc1cc2ncn(-c3cc(OCc4ccccc4C(F)(F)F)c(C(=O)N(C)C)s3)c2cc1OC"
result_units = "%"
reading = 1.47

[[record]]
smiles_str = "COc1cccc(-n2ncc3c(N/N=C/c4ccc(F)cc4)ncnc32)c1"
result_units = "%"
reading = -1.74

[[record]]
smiles_str = "CN(C)CCOc1ccc(-c2nc(-c3ccncc3)c(-c3ccc4c(c3)CC/C4=N\\O)[nH]2)cc1"
result_units = "%"
reading = -5.49

[[record]]
smiles_str = "CCOc1ccc2c(-c3ccnc(Nc4cccc(C(F)(F)F)c4)n3)cnn2n1"
result_units = "%"
reading = 0


---

biological target: Tyrosine-protein kinase Fes/Fps (Homo sapiens); conditions: at 1 µM;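 note: mean inhibition of FES from the GSK PKIS kinase inhibitor screening set, assayed by Nanosyn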
observation type: inhibition (%)

[[record]]
smiles_str = "CNC(=O)c1cncc(/C=C/c2ccccc2Cl)c1"
assayed_system = "Tyrosine-protein kinase Fes/Fps (Homo sapiens)"
reading = 0.02

[[record]]
smiles_str = "CC(=O)Nc1cccc(C#Cc2cncnc2Nc2ccc(OCc3cccc(F)c3)c(Cl)c2)c1"
assayed_system = "Tyrosine-protein kinase Fes/Fps (Homo sapiens)"
reading = 3.58

[[record]]
smiles_str = "COc1cc(/C=N/Nc2ncnc3[nH]ncc23)ccc1O"
assayed_system = "Tyrosine-protein kinase Fes/Fps (Homo sapiens)"
reading = 7.19

[[record]]
smiles_str = "Nc1nc(-c2cccc(Cl)c2)c(-c2ccc3ncccc3n2)s1"
assayed_system = "Tyrosine-protein kinase Fes/Fps (Homo sapiens)"
reading = 4.47

[[record]]
smiles_str = "N#Cc1c(NC(=O)c2ccc(F)cc2)sc2c1CCCC2"
assayed_system = "Tyrosine-protein kinase Fes/Fps (Homo sapiens)"
reading = 1.22

[[record]]
smiles_str = "CNC(=O)c1cc(-c2ccc(F)cc2)cc(-c2ccc(S(=O)(=O)N3CCCC3)cc2)c1N"
assayed_system = "Tyrosine-protein kinase Fes/Fps (Homo sapiens)"
reading = 1.64

[[record]]
smiles_str = "CS(=O)(=O)CCNCc1coc(-c2ccc3ncnc(Nc4ccc(OCc5ccccc5)cc4)c3c2)c1"
assayed_system = "Tyrosine-protein kinase Fes/Fps (Homo sapiens)"
reading = 3.78

[[record]]
smiles_str = "CCn1cc(-c2ccnc3[nH]ccc23)c(-c2cccc(NC(=O)Nc3ccc(OCc4ccccc4)cc3)c2)n1"
assayed_system = "Tyrosine-protein kinase Fes/Fps (Homo sapiens)"
reading = 2.87

[[record]]
smiles_str = "COc1cccc(-c2c[nH]c3c(N/N=C/c4ccncc4)ncnc23)c1"
assayed_system = "Tyrosine-protein kinase Fes/Fps (Homo sapiens)"
reading = 2.81


---

tested on: Serine/threonine-protein kinase B-raf (Homo sapiens), P15056 [V600E]; details: at 0.1 µM;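 note: mean inhibition of the BRAF V599E mutant, from GSK PKIS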
Sequence (P15056 whole entry V600E): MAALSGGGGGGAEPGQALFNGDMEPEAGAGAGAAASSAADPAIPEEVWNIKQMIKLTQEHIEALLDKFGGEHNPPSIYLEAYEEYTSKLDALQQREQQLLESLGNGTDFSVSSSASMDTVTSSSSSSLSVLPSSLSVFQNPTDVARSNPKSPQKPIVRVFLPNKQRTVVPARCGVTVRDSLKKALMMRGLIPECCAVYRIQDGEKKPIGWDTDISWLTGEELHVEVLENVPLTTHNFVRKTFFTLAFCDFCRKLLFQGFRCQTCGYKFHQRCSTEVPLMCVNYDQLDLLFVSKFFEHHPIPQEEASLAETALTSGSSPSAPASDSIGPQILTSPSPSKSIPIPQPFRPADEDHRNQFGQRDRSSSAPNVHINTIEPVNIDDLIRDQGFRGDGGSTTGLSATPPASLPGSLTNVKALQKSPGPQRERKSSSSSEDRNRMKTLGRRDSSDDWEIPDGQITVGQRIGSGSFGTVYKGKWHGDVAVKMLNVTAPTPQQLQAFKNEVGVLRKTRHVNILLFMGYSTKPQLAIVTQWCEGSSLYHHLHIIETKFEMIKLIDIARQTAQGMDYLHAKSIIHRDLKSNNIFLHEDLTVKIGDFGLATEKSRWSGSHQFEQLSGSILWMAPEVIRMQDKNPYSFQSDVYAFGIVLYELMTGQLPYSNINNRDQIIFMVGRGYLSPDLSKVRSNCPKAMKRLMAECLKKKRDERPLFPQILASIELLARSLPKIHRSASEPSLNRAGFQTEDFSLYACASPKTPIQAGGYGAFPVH
Description: GSK_PKIS: BRAF (V599E mutant) mean inhibition at 0.1 uM [Nanosyn]
observation type: inhibition (%)

[[record]]
smiles_str = "Fc1ccc(-c2nn3ncccc3c2-c2ccnc(Nc3ccc4c(c3)OCCO4)n2)cc1"
reading = 11.6

[[record]]
smiles_str = "CCN(CC)S(=O)(=O)c1ccc(OC)c(Nc2ncc(-c3ccccc3)o2)c1"
reading = -0.35

[[record]]
smiles_str = "CCn1c(-c2nonc2N)nc2ccccc21"
reading = 3.64

[[record]]
smiles_str = "c1cc(-c2cnn3nc(N4CCOCC4)ccc23)nc(NC2CC2)n1"
reading = 3.6

[[record]]
smiles_str = "Fc1cccc(COc2ccc(Nc3ncnc4sc(-c5ccco5)cc34)cc2Cl)c1"
reading = 4.59


---

target: Tyrosine-protein kinase Lyn (Homo sapiens) (UniProt P07948); conditions: at 1 µM;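 note: mean percent inhibition of the LYN A splice variant of the kinase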
Sequence (P07948 2-512 limits assumed): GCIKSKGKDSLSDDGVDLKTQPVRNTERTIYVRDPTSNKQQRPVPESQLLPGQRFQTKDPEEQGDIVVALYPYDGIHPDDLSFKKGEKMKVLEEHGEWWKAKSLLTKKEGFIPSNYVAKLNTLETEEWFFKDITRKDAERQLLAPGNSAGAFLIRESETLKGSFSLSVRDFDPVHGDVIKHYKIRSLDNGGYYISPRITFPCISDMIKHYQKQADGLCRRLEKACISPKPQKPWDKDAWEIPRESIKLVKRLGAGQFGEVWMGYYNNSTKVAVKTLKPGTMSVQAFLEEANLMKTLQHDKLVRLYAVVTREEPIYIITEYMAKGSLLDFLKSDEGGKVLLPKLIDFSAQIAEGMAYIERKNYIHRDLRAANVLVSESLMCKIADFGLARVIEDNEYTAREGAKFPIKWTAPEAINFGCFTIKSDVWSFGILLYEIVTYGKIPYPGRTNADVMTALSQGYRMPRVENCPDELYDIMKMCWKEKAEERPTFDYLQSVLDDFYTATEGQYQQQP
Description: GSK_PKIS: LYN A (splice variant) mean inhibition at 1 uM [Nanosyn]
Measured inhibition values are reported for all entries that follow.
observation type: inhibition (%)

[[record]]
smiles_str = "Fc1cccc(COc2ccc(Nc3ncnc4sc(-c5ccco5)cc34)cc2Cl)c1"
reading = 4.38

[[record]]
smiles_str = "CCn1c(-c2nonc2N)nc2c(C#CC(C)(C)O)nc(OC[C@H](N)c3ccccc3)cc21"
reading = 4.52

[[record]]
smiles_str = "COC(=O)Nc1nc2ccc(Oc3ccc(NC(=O)Nc4cccc(Cl)c4)cc3)cc2[nH]1"
reading = 13.5

[[record]]
smiles_str = "O=S(=O)(CCNCc1ccc(-c2ccc3ncnc(Nc4ccc(OCc5cccc(F)c5)c(Cl)c4)c3c2)o1)c1ccccc1"
reading = 7.64

[[record]]
smiles_str = "Fc1ccc(-c2nn3ccccc3c2-c2ccncc2)cc1"
reading = 6.12

[[record]]
smiles_str = "CCn1c(-c2nonc2N)nc2ccccc21"
reading = 2.16

[[record]]
smiles_str = "COc1cc(N2CCN(C(C)C)CC2)ccc1Nc1nc(Nc2ccc(F)cc2C(N)=O)c2cc[nH]c2n1"
reading = 2.96

[[record]]
smiles_str = "COc1cccc(-n2ncc3c(N/N=C/c4ccc(F)cc4)ncnc32)c1"
reading = 48.7

[[record]]
smiles_str = "NS(=O)(=O)c1ccc(Nc2ncc(-c3ccccc3)o2)cc1"
reading = 12.4

[[record]]
smiles_str = "COc1ccc(-c2cc(-c3c[nH]nc3-c3ccccn3)ccn2)cc1"
reading = 15.2

[[record]]
smiles_str = "c1cc(-c2cnn3nc(N4CCOCC4)ccc23)nc(NC2CC2)n1"
reading = 2.39

[[record]]
smiles_str = "CN1CCC(n2cnc(-c3ccc(F)cc3)c2-c2ccnc(N)n2)CC1"
reading = 10.1

[[record]]
smiles_str = "COC(=O)c1sc(-n2cnc3cc(OC)c(OC)cc32)cc1OCc1ccccc1C(F)(F)F"
reading = 19.6

[[record]]
smiles_str = "COc1ccc2[nH]c3c4[nH]c5ccc(OC)cc5c4c4c(c3c2c1)C(=O)NC4=O"
reading = 35.3

[[record]]
smiles_str = "COC(=O)Nc1nc2ccc(S(=O)(=O)c3ccc(NC(=O)Nc4cc(C(F)(F)F)ccc4F)cc3)cc2[nH]1"
reading = 3.43

[[record]]
smiles_str = "N#Cc1c(NC(=O)c2ccc(F)cc2)sc2c1CCCC2"
reading = 2.77

[[record]]
smiles_str = "COc1ccc(CNC(=O)c2ccc(-c3cc(-c4nnc(C)o4)ccc3C)cc2)cc1"
reading = 7.5

[[record]]
smiles_str = "c1ccc(COc2ccc(Nc3ncnc4ccc(-c5ccco5)cc34)cc2)cc1"
reading = 2.5

[[record]]
smiles_str = "N#Cc1c(NC(=O)CN2CCOCC2)sc2c1CCCC2"
reading = 7.89

[[record]]
smiles_str = "CNC(=O)c1cc(-c2ccc(F)cc2)cc(-c2ccc(S(=O)(=O)N3CCCC3)cc2)c1N"
reading = 2.56

[[record]]
smiles_str = "O=C(O[C@H]1CN[C@H](C#Cc2cc3ncnc(Nc4ccc(Cc5ccccc5)cc4)c3s2)C1)N1CCOCC1"
reading = 4.14


---

target: Serine/threonine-protein kinase 4 (Homo sapiens); conditions: at 0.1 µM;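 note: mean inhibition of MST1, reported as part of the GSK PKIS dataset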
inhibition values for the compounds below.
observation type: inhibition (%)

[[record]]
smiles_str = "COc1ccc(-c2nn3ncccc3c2-c2ccnc(Nc3ccc4c(c3)OCCO4)n2)cc1"
observation_type = "inhibition"
result_units = "%"
reading = -0.55

[[record]]
smiles_str = "CCNC(=O)O[C@H]1CN[C@H](C#Cc2cc3ncnc(Nc4ccc(OCc5cccc(F)c5)c(Cl)c4)c3s2)C1"
observation_type = "inhibition"
result_units = "%"
reading = 5.6

[[record]]
smiles_str = "CCn1c(-c2nonc2N)nc2ccccc21"
observation_type = "inhibition"
result_units = "%"
reading = 5.56

[[record]]
smiles_str = "Fc1cccc(COc2ccc(Nc3ncnc4sc(-c5ccco5)cc34)cc2Cl)c1"
observation_type = "inhibition"
result_units = "%"
reading = 4.94

[[record]]
smiles_str = "CS(=O)(=O)CCNCc1ccc(-c2ccc3ncnc(Nc4ccc(OCc5ccccc5)c(C(F)(F)F)c4)c3c2)o1"
observation_type = "inhibition"
result_units = "%"
reading = 2.67

[[record]]
smiles_str = "CCCN(CCS(C)(=O)=O)Cc1ccc(-c2ccc3ncnc(Nc4ccc(OCc5cccc(F)c5)c(Cl)c4)c3c2)o1"
observation_type = "inhibition"
result_units = "%"
reading = 2.67

[[record]]
smiles_str = "Cc1cccc2c1NC(=O)/C2=N\\Nc1ccc(S(N)(=O)=O)cc1"
observation_type = "inhibition"
result_units = "%"
reading = 6.81

[[record]]
smiles_str = "COc1ccc2[nH]c3c4[nH]c5ccc(OC)cc5c4c4c(c3c2c1)C(=O)NC4=O"
observation_type = "inhibition"
result_units = "%"
reading = 13

[[record]]
smiles_str = "CCn1cc(-c2ccnc3[nH]ccc23)c(-c2cccc(NC(=O)Nc3ccc(OCc4ccccc4)cc3)c2)n1"
observation_type = "inhibition"
result_units = "%"
reading = 1.36

[[record]]
smiles_str = "FC(F)(F)c1cccc(-c2nn3ncccc3c2-c2ccnc(Nc3ccc4c(c3)OCCO4)n2)c1"
observation_type = "inhibition"
result_units = "%"
reading = 4.33

[[record]]
smiles_str = "CCN1CCC(CC(=O)Nc2n[nH]c3nnc(-c4cccc(F)c4F)cc23)CC1"
observation_type = "inhibition"
result_units = "%"
reading = 2.83

[[record]]
smiles_str = "NS(=O)(=O)c1ccc(N/N=C2\\C(=O)Nc3ccc4ncccc4c32)cc1"
observation_type = "inhibition"
result_units = "%"
reading = 84.6

[[record]]
smiles_str = "c1cc(-c2cnn3nc(N4CCOCC4)ccc23)nc(NC2CC2)n1"
observation_type = "inhibition"
result_units = "%"
reading = 7.25

[[record]]
smiles_str = "Clc1ccc(-c2nn3ncccc3c2-c2ccnc(Nc3ccccc3)n2)cc1"
observation_type = "inhibition"
result_units = "%"
reading = 0.77

[[record]]
smiles_str = "CNC(=O)c1cccc(C#Cc2cncnc2Nc2ccc(OCc3cccc(F)c3)c(Cl)c2)c1"
observation_type = "inhibition"
result_units = "%"
reading = 4.83

[[record]]
smiles_str = "COc1ccc(-c2oc3ncnc(N)c3c2-c2ccc(NC(=O)Nc3cc(C(F)(F)F)ccc3F)cc2)cc1"
observation_type = "inhibition"
result_units = "%"
reading = 12.5

[[record]]
smiles_str = "NS(=O)(=O)c1ccc(Nc2ncc(-c3ccccc3)o2)cc1"
observation_type = "inhibition"
result_units = "%"
reading = 6.4

[[record]]
smiles_str = "CCOc1ccc2c(-c3ccnc(Nc4cccc(C(F)(F)F)c4)n3)cnn2n1"
observation_type = "inhibition"
result_units = "%"
reading = 3.72

[[record]]
smiles_str = "CCn1c(-c2nonc2N)nc2c(C#CC(C)(C)O)nc(OC[C@H](N)c3ccccc3)cc21"
observation_type = "inhibition"
result_units = "%"
reading = 7.92

[[record]]
smiles_str = "COC(=O)Nc1nc2ccc(Oc3ccc(NC(=O)Nc4cccc(Cl)c4)cc3)cc2[nH]1"
observation_type = "inhibition"
result_units = "%"
reading = 2.25

[[record]]
smiles_str = "CCn1c(-c2nonc2N)nc2cnc(Oc3cccc(NC(=O)c4ccc(N(C)C)cc4)c3)cc21"
observation_type = "inhibition"
result_units = "%"
reading = -0.06

[[record]]
smiles_str = "N#Cc1c(NC(=O)CN2CCOCC2)sc2c1CCCC2"
observation_type = "inhibition"
result_units = "%"
reading = 5.59

[[record]]
smiles_str = "Nc1ncc(-c2cccc(S(N)(=O)=O)c2)c2scc(-c3ccc(F)c(Cl)c3)c12"
observation_type = "inhibition"
result_units = "%"
reading = 4.66

[[record]]
smiles_str = "Fc1ccc(-c2nn3ncccc3c2-c2ccnc(Nc3ccc4c(c3)OCCO4)n2)cc1"
observation_type = "inhibition"
result_units = "%"
reading = 3.27

[[record]]
smiles_str = "O=C(Nc1n[nH]c2cc(-c3ccc(F)cc3)ccc12)C1CC1"
observation_type = "inhibition"
result_units = "%"
reading = 2.34

[[record]]
smiles_str = "O=C(O[C@H]1CN[C@H](C#Cc2cc3ncnc(Nc4ccc(Cc5ccccc5)cc4)c3s2)C1)N1CCOCC1"
observation_type = "inhibition"
result_units = "%"
reading = 1.14

[[record]]
smiles_str = "CN1CCC(n2cnc(-c3ccc(F)cc3)c2-c2ccnc(Nc3ccccc3)n2)CC1"
observation_type = "inhibition"
result_units = "%"
reading = 3.25

